- system_tested: hMMP8 (Homo sapiens)
- Construct: purchased Calbiochem
- Sequence (P22894 101-467): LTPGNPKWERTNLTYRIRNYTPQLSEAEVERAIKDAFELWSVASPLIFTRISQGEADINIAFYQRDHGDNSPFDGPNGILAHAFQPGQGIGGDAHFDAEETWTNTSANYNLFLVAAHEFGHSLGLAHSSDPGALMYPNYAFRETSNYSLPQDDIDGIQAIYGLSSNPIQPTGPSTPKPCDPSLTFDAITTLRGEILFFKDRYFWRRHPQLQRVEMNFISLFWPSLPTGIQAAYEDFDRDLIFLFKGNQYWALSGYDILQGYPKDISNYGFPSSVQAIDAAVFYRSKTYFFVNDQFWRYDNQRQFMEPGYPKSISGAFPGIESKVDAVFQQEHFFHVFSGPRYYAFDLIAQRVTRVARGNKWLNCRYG
- experiment_notes: Isolated enzyme assay MMP8 (fluorogenic substrate)
- Assay type: biochemical
- test_parameters: IC50 (MMP8) divided by IC50 (MMP12)
- Protocol: Purified pro-MMP8 is purchased from Calbiochem. The enzyme (at 10 μg/ml) is activated by p-amino-phenyl-mercuric acetate (APMA) at 1 mM for 2.5 h, 35° C. […] Activity is determined by measuring the fluorescence at λex 320 nm and λem 405 nm. Percent inhibition is calculated as follows: % Inhibition is equal to the [Fluorescenceplus inhibitor−Fluorescencebackground] divided by the [Fluorescenceminus inhibitor−Fluorescencebackground].
value_kind: Selectivity for inhibition of hMMP12 over: hMMP8

(1) O=C1NC(=O)[C@](CS(=O)(=O)NCc2ccc(Oc3cnc(C(F)(F)F)nc3)cc2)(C2CC2)N1
(2) CN(Cc1ccc(Oc2cnc(C3CC3)nc2)cc1)S(=O)(=O)C[C@@]1(C2CC2)NC(=O)NC1=O
Please compare: 1 and 2 . Report which one has the smaller Selectivity for inhibition of hMMP12 over: hMMP8 value. The response must carry the label of the picked entry.
1
(1: 657, 2: 2120)
